- Tested on: NCI-H322M lung
- measurement.description: NCI-60 one-dose screen, 48 h (100 = growth as untreated, 0 = no growth, -100 = all killed)
- condition: 10 µM unless noted
About 83,000 compounds went through this panel and 20% of them were active in at least one assay; those are over-represented in the sample as a whole.
metric: growth (%)
Express the result in % but write the number alone.

Recorded growth for C/C(=N\O)c1ccc(NC(=O)CSc2nnc(-c3cc(-c4ccc(S(C)(=O)=O)cc4)nc4ccccc34)n2-c2ccccc2)cc1 , please?
91.7

Which value of growth has been reported for Clc1ccccc1-c1cnn2cc(-c3ccccc3)cnc12 in the records?
87

Need growth, item O=C(Cc1ccc(/C=C/C(=O)c2ncc[nH]2)cc1)Nc1cc(C(F)(F)F)cc(C(F)(F)F)c1
96.4

Quick check: growth of N#C/C(=C\c1ccc(-c2cccc(C(F)(F)F)c2)o1)c1ccccc1 ?
86

Which growth value belongs to O=C(/C=C/C12c3ccccc3C(c3ccccc31)C1C(=O)NC(=O)C12)c1ccc(Br)cc1 (stereo not drawn) ?
55.8

// lookup growth for Ic1ccccc1I
126

Query (compound): COc1ccc(CCN(CC(=O)N(CC(N)=O)C2CCC[C@@H]2OCc2ccccc2)C(=O)CN(C(=O)CN(CCc2ccc(Cl)cc2)C(=O)CN(C(=O)CN(C)Cc2ccccc2F)[C@H](C)C2CCCCC2)[C@H](C)C2CCCCC2)cc1OC (stereo partly drawn) ; field requested: growth
40.6

Dear colleague, I am looking for the recorded growth of the following compound: COc1ccc2cc(-c3ccnc4c(N=Nc5ccc(Cl)cc5)c(N)nn34)ccc2c1
102

====

- System: SK-MEL-28 melanoma
- measurement.description: NCI-60 one-dose screen, 48 h
- condition: 10 µM unless noted
The panel holds about 83,000 compounds, 20% with a hit somewhere; the sample as a whole holds those more often. The source made the active and inactive calls. How the source made its calls: active means growth percent below 10; inactive means the rest.
Pick one and only one: active, inactive

Assay outcome for CC(=C(c1ccc(OCCN2CCCCC2)cc1)c1ccc(OCCN2CCCCC2)cc1)c1ccc(Cl)cc1 : what was it?
active

Returns: the outcome recorded for CCOC(=O)c1nn(CC(O)c2ccccc2)c(NC(=O)Nc2cccc(F)c2)c1C (centres undefined) in this assay.
inactive

Call for entry CC(=O)c1sc2sc(C(C)=O)c(C)c2c1C :
inactive

# lookup: test call for O=C(Cc1ccc(/C=C/C(=O)c2ncc[nH]2)cc1)Nc1cc(C(F)(F)F)cc(C(F)(F)F)c1
inactive

# lookup: test call for O=C1Nc2c(C(=O)O)cccc2/C1=N/c1n[nH]c(=S)s1
inactive

State the result this test recorded for CC[C@]12C=CCN3CC[C@@]4(c5ccc(OC)cc5N(C)[C@H]4[C@@](O)(C(=O)OC)[C@@H]1OC(=O)CCC[P+](c1ccccc1)(c1ccccc1)c1ccccc1)[C@@H]32 .
inactive

For this molecule, state the assay outcome: O=C1Nc2ccccc2/C1=C\c1c[nH]c2ccc(Br)cc12
inactive

Assay result, entry COC(=O)c1c2c(n3ccccc13)C(=O)c1ccccc1C2=O — outcome?
inactive

Tell me the recorded outcome of this test for Cc1cccc2c1C[C@@]1(C2=O)C(c2ccc(C(C)(C)C)cc2)=NOS1=O (some centres undefined) .
inactive

====

- Test system: UACC-62 melanoma
- measurement.description: NCI-60 one-dose screen, 48 h (100 = growth as untreated, 0 = no growth, -100 = all killed)
- condition: 10 µM unless noted
The panel holds about 83,000 compounds, 20% with a hit somewhere; the sample as a whole holds those more often.
Classification scheme (growth): lower level = under 50%, middle level = from 50% up to 80%, upper level = 80% and over

Exercise: read the entry COCCn1cc(-c2csc(-c3c[nH]c4ccc(Br)cc34)n2)c2cccnc21 and state which class it falls under.
lower level

Into which category would you place CCCCCCCC/C=C\CCCCCCCCOc1ccc(CC(=O)NCC[N+]2(C)CCOCC2)cc1 ?
middle level

Class? Entry: COc1ccc2c(c1)c(/C(O)=C1\COC(=O)C1=O)cn2Cc1ccc(F)cc1
upper level

Which band does O=C1/C(=C\c2cccc3nccnc23)SC(=S)N1CCc1ccc(O)cc1 fall in?
middle level

Kindly identify the class of O=S(=O)(Oc1ccc(Br)cc1)c1ccc(Cl)cc1 .
upper level

Which bin, given its growth, does CC1=C2[C@@H](CC1)[C@]1(C)O[C@@](C3CCCCC3)(C[C@H]1OC(=O)CO)[C@H]2OC(=O)/C=C/c1ccccc1 occupy?
middle level

// bin(item) where item = C=C1C(=O)O[C@H]2[C@H]1CC/C(COC(=O)/C=C/C(=O)OC/C1=C/CC[C@@]3(C)O[C@H]3[C@H]3OC(=O)C(=C)[C@@H]3CC1)=C\CC[C@@]1(C)O[C@@H]21
middle level

Given Nc1[nH]c(=S)nc2oc(-c3ccccc3)c(-c3ccccc3)c12 , name the class its growth places it in.
upper level

Tag the class for CC(=O)ON1CCCC(P(=O)(OCCSC(=O)C(C)(C)C)OCCSC(=O)C(C)(C)C)C1=O (centres undefined)
lower level

Class label required: O=C(/C=C/C12c3ccccc3C(c3ccccc31)C1C(=O)NC(=O)C12)c1ccc(Br)cc1 (centres undefined)
lower level

Band for the recorded growth of N=c1c(S(=O)(=O)c2ccccc2)cc2c(=O)n3ccccc3nc2n1CC1CCCO1 (centres undefined) ?
upper level

For this compound, which bin applies? C#CC#CC#CC#CC#CC#CC#CC#CCC1OC[C@H](COC(=O)O[C@@H](C(=O)O[C@H]2C[C@@]3(O)[C@@H](OC(=O)c4ccccc4)[C@@H]4[C@]5(OC(C)=O)CO[C@@H]5C[C@H](O)[C@@]4(C)C(=O)[C@H](OC(C)=O)C(=C2C)C3(C)C)[C@@H](NC(=O)c2ccccc2)c2ccccc2)O1 (some centres undefined)
lower level

Band of CO[C@H](C(=O)[C@@H](O)[C@@H](C)O)[C@@H]1Cc2cc3cc(O[C@H]4C[C@@H](O[C@H]5C[C@@H](O)[C@H](O)C(C)O5)[C@H](O)C(C)(O)O4)cc(O)c3c(O)c2C(=O)[C@H]1O[C@H]1C[C@@H](O[C@H]2C[C@@H](O[C@H]3C[C@@H](OC)[C@H](O)C(C)O3)[C@@H](O)C(C)O2)[C@H](O)C(C)O1 (some centres undefined) ?
lower level

====

- Test system: M14 melanoma
- measurement.description: NCI-60 one-dose screen, 48 h (100 = growth as untreated, 0 = no growth, -100 = all killed)
- condition: 10 µM unless noted
- Procedure: Growth inhibition of the M14 human tumor cell line is measured as a screen for anti-cancer activity. Cells are grown in 96 well plates and exposed to the test compound for 48 hours. Compounds are tested at a single concentration, which is 10^-5 M for most compounds. The reported endpoint is percent growth (GI% or GIPRCNT), where numbers from 0 - 100% represent growth inhibition, and numbers from -100% - 0 represent cell death. For example, a value of 40 represents 60% growth inhibition. […]
About 83,000 compounds went through this panel and 20% of them were active in at least one assay; those are over-represented in the sample as a whole.
metric: growth (%)
Please respond with the number in % and leave the unit unwritten.

Form field: growth recorded for C=CCOC(=O)C1=C(C)N(CC)C(=O)NC1c1c(Cl)n(C)c2ccccc12 (stereo unspecified) with M14 melanoma (enter value)
88.6

What measured growth is associated with O=C1/C(=C2\SC(=S)N(C3CC3)C2=O)SC(=S)N1C1CC1 on M14 melanoma?
96.3

Form: Entry = NC1(CO)COC(c2ccccc2)OC1 (stereo unspecified) | System = M14 melanoma | growth = ____
118

Fill in the recorded growth for this compound, with M14 melanoma as test system: Cc1ccc2nc(-c3ccc(C(=O)NNC(=S)Nc4ccccc4)cc3)[nH]c2c1
88.6

Give recorded growth with M14 melanoma for the following compound: COc1ccc(C[n+]2c3ccccc3n3c4ccc(N)cc4ccc32)c(OC)c1OC
87.5

Requested read-out growth, target or system M14 melanoma, entry Ic1ccccc1I
94.3

====

- Test system: HOP-92 NSCLC
- measurement.description: NCI-60 one-dose screen, 48 h (100 = growth as untreated, 0 = no growth, -100 = all killed)
- condition: 10 µM unless noted
This is part of a sample that, as a whole, favours compounds with a hit. Of some 83,000 tested, about 20% had one in any assay. The source made the active and inactive calls. The calls were made as follows: active = growth percent below 10; inactive = the rest.
metric: growth

// query growth value for entry CC(C)(C)n1cc(-c2ccnc(NCCCNS(=O)(=O)c3ccc(C(F)(F)F)cc3)c2)c(-c2cccc(F)c2)n1
90.1% (inactive)

May I ask what growth has been recorded for Nc1nc(NC(=O)Nc2ccc(C(=O)O)cc2)nn1-c1ccc(S(N)(=O)=O)cc1 ?
78.3% (inactive)

Fill in the blank: the reported growth of C=C1C(=O)O[C@H]2[C@H]1CC/C(COC(=O)c1cc3cc(Cl)ccc3[nH]1)=C\CC[C@@]1(C)O[C@@H]21 is ____.
-80.3% (active)

Query: growth; subject: CCN(CC)CCCN1C(=O)c2c(c(C)c3c(oc4ccc(O)cc43)c2C)C1=O
69.3% (inactive)

Query: growth; subject: FC(F)(F)c1ccc(Cn2cc(CSc3nc4ccccc4s3)nn2)cc1
85.4% (inactive)
